Item-by-item account of MIC Enterococcus faecium (GC 4557)
- Tested on: Enterococcus sp.
- experimentalProtocol: in vitro antibacterial evaluation, MIC by broth dilution
- Type: cell-based
- conditionInfo: strain GC 4557; broth dilution, 18 hours at 35° C.

# molecule, comparisonSymbol, MIC Enterococcus faecium (GC 4557) (µg/mL)
rows = [
    ("COc1cc(-c2nc3cc(CC4NC(=O)C(C(C)c5ccccc5)NC(=O)CNC(=O)C(CO)NC(=O)C(C(O)C5CNC(=N)N5C5OC(CO)C(O)C(O)C5O)NC(=O)C(C(O)C5CNC(=N)N5)NC4=O)ccc3o2)cc(OC)c1OC (centres unmarked)", "=", 8),
    ("CC(C)C(=O)Nc1cc(CC2NC(=O)C(C(C)c3ccccc3)NC(=O)CNC(=O)C(CO)NC(=O)C(C(O)C3CNC(=N)N3C3OC(CO)C(O)C(O)C3O)NC(=O)C(C(O)C3CNC(=N)N3)NC2=O)ccc1O (centres unmarked)", ">", 128),
]

---

- Tested on: Staphylococcus sp.
- experimentalProtocol: in vitro antibacterial evaluation, MIC by broth dilution
- Assay type: cell-based
- conditionInfo: broth dilution, 18 hours at 35° C.; strain GC 4549
measuredQuantity: MIC Coagulase Negative Staphylococcus (GC 4549) (µg/mL)

# molecule, experimentalSystem, comparisonSymbol, measuredResult
rows = [
    ("CCCCCNC(=O)OC1C(CO)OC(OC2C(CO)OC(Oc3ccc(CC4NC(=O)C(C(C)c5ccccc5)NC(=O)CNC(=O)C(CO)NC(=O)C(C(O)C5CNC(=N)N5C5OC(CO)C(O)C(O)C5O)NC(=O)C(C(O)C5CNC(=N)N5)NC4=O)cc3)C(O)C2O)C(O)C1O (stereo not shown)", "Staphylococcus sp.", ">", 64),
    ("CC(c1ccccc1)C1NC(=O)CNC(=O)C(CO)NC(=O)C(C(O)C2CNC(=N)N2C2OC(CO)C(O)C(O)C2O)NC(=O)C(C(O)C2CNC(=N)N2)NC(=O)C(Cc2ccc(OC3OC(CO)C(OC4OC5COC(c6ccccc6)OC5C(O)C4O)C(O)C3O)cc2)NC1=O (stereo not shown)", "Staphylococcus sp.", "=", 0.5),
    ("CC(=O)OCC1OC(OC2C(CO)OC(Oc3ccc(CC4NC(=O)C(C(C)c5ccccc5)NC(=O)CNC(=O)C(CO)NC(=O)C(C(O)C5CNC(=N)N5C5OC(CO)C(O)C(O)C5O)NC(=O)C(C(O)C5CNC(=N)N5)NC4=O)cc3)C(O)C2O)C(O)C(OC(=O)CCC(C)C)C1O (stereo not shown) [Example 270b]", "Staphylococcus sp.", "=", 4),
    ("CCCC(C)C1OCC2OC(OC3C(CO)OC(Oc4ccc(CC5NC(=O)C(C(C)c6ccccc6)NC(=O)CNC(=O)C(CO)NC(=O)C(C(O)C6CNC(=N)N6C6OC(CO)C(O)C(O)C6O)NC(=O)C(C(O)C6CNC(=N)N6)NC5=O)cc4)C(O)C3O)C(O)C(O)C2O1 (stereo not shown)", "Staphylococcus sp.", "=", 0.5),
]

---

Item-by-item account of MIC Enterococcus faecalis (ATCC 29212)
- Tested on: Enterococcus sp.
- experimentalProtocol: in vitro antibacterial evaluation, MIC by broth dilution
- Format: cell-based
- conditionInfo: broth dilution, 18 hours at 35° C.
measuredQuantity: MIC Enterococcus faecalis (ATCC 29212) (µg/mL)

# molecule, unit, comparisonSymbol, measuredResult
records = [
    ("CC(c1ccccc1)C1NC(=O)CNC(=O)C(CO)NC(=O)C(C(O)C2CNC(=N)N2C2OC(CO)C(O)C(O)C2O)NC(=O)C(C(O)C2CNC(=N)N2)NC(=O)C(Cc2ccc(OC3OC(CO)C(OC4OC5COC6(CC7CCC6(C)C7(C)C)OC5C(O)C4O)C(O)C3O)cc2)NC1=O (stereo not drawn)", "µg/mL", "=", 0.5),
    ("CC(c1ccccc1)C1NC(=O)CNC(=O)C(CO)NC(=O)C(C(O)C2CNC(=N)N2C2OC(CO)C(O)C(O)C2O)NC(=O)C(C(O)C2CNC(=N)N2)NC(=O)C(Cc2ccc(OC3OC(COC(=O)Cc4ccccc4)C(OC4OC(CO)C(O)C(O)C4O)C(O)C3O)cc2)NC1=O (stereo not drawn) [Example 98b]", "µg/mL", "=", 64),
    ("CC(c1ccccc1)C1NC(=O)CNC(=O)C(CO)NC(=O)C(C(O)C2CNC(=N)N2C2OC(CO)C(O)C(O)C2O)NC(=O)C(C(O)C2CNC(=N)N2)NC(=O)C(Cc2ccc(OC3OC(CO)C(OC4OC5COC6(CCCCC6C)OC5C(O)C4O)C(O)C3O)cc2)NC1=O (stereo not drawn)", "µg/mL", "=", 16),
    ("CCCCCCN=C1NCC(C(O)C2NC(=O)C(C(O)C3CNC(=N)N3)NC(=O)C(Cc3ccc(OC4OC(CO)C(OC5OC6COC7(OC6C(O)C5O)C5CC6CC(C5)CC7C6)C(O)C4O)cc3)NC(=O)C(C(C)c3ccccc3)NC(=O)CNC(=O)C(CO)NC2=O)N1C1OC(CO)C(O)C(O)C1O (stereo not drawn)", "µg/mL", "=", 8),
    ("CC(c1ccccc1)C1NC(=O)CNC(=O)C(CO)NC(=O)C(C(O)C2CNC(=N)N2C2OC(CO)C(O)C(O)C2O)NC(=O)C(C(O)C2CNC(=N)N2)NC(=O)C(Cc2ccc(OC3OC(CO)C(OC4OC5COC6(OC5C(O)C4O)C4CCCC6CCC4)C(O)C3O)cc2)NC1=O (stereo not drawn)", "µg/mL", "=", 8),
    ("CC(c1ccccc1)C1NC(=O)CNC(=O)C(CO)NC(=O)C(C(O)C2CNC(=N)N2C2OC(CO)C(O)C3OC(C)(C)OC32)NC(=O)C(C(O)C2CNC(=N)N2)NC(=O)C(Cc2ccc(OC3OC(CO)C(OC4OC(CO)C(O)C(O)C4O)C4OC(C)(C)OC34)cc2)NC1=O (stereo not drawn)", "µg/mL", ">", 128),
]
